# System: human melanoma SKMEL28 cells
# Assay comment: MTS cell viability assay, SKMEL28
# Type: cell-based
# Setup conditions: Homo sapiens, SK-MEL-28, 72 h, Table 1, 72-hour treatment
Measured endpoint: pIC50
// field semantics: pIC50 = negative decimal log of concentration (mol/L)

Molecule	pIC50
CC(=O)OCC1=C(C)C[C@H]([C@@H](C)C2CC[C@H]3[C@@H]4C[C@H]5O[C@]56[C@@H](OC(C)=O)C=CC(=O)[C@]6(CO)[C@H]4CC[C@]23C)OC1=O (stereo partly shown)	6.09
CC1=C(CO)C(=O)O[C@@H]([C@@H](C)C2CC[C@H]3[C@@H]4C[C@H]5O[C@]56[C@@H](O)C=CC(=O)[C@]6(CO)[C@H]4CC[C@]23C)C1 (stereo partly shown)	5.30
CC1=C(CO)C(=O)O[C@@H]([C@@H](C)[C@H]2CC[C@H]3[C@@H]4C[C@H]5O[C@]56[C@@H](O)C=CC(=O)[C@]6(C)[C@H]4CC[C@]23C)C1 [Withaferin A, reference compound]	5.40

Consider the additional molecule presented here.
[in] # value lookup — system human melanoma SKMEL28 cells, readout pIC50, item CC(=O)OCC1=C(C)C[C@H]([C@@H](C)C2CC[C@H]3[C@@H]4C[C@H]5O[C@]56[C@@H](OC(C)=O)C=CC(=O)[C@]6(COC(C)=O)[C@H]4CC[C@]23C)OC1=O (stereo partly shown)
[out] 6.27

###

# Tested on: human melanoma SKMEL28 cells
# Assay comment: MTS cell viability assay, SKMEL28
# Format: cell-based
# Setup conditions: Homo sapiens, SK-MEL-28, Table 5
Measured endpoint: IC50 (µM)
Provide only the numeric value, understood in µM.

Molecule	Unit of measurement	IC50
CC(=O)OC[C@]12C(=O)C=C[C@H](O)[C@]13O[C@@H]3C[C@H]1[C@@H]3CC[C@H]([C@H](C)[C@H]4CC(C)=C(CO)C(=O)O4)[C@@]3(C)CC[C@@H]12 [HFM-JA-336B]	µM	0.24

Consider the additional molecule presented here.
[in] State the recorded IC50 for this entry: CC1=C(CO)C(=O)O[C@@H]([C@@H](C)[C@H]2CC[C@H]3[C@@H]4C[C@H]5O[C@]56[C@@H](O)[C@@H](OS(=O)(=O)O)CC(=O)[C@]6(CO)[C@H]4CC[C@]23C)C1 [Compound X017]
[out] 4.8

###

# System: human melanoma SKMEL28 cells
# Assay comment: MTS cell viability assay, SKMEL28
# Format: cell-based
# Setup conditions: Homo sapiens, SK-MEL-28, Table 6
Measured endpoint: IC90

Molecule	IC90
CC(=O)OCC1=C(C)C[C@H]([C@@H](C)[C@H]2CC[C@H]3[C@@H]4C[C@H]5O[C@]56[C@@H](O)C=CC(=O)[C@]6(COC(C)=O)[C@H]4CC[C@]23C)OC1=O [HFM-JA-336D]	420 nM
CC(=O)OCC1=C(C)C[C@H]([C@@H](C)[C@H]2CC[C@H]3[C@@H]4C[C@H]5O[C@]56[C@@H](O)C=CC(=O)[C@]6(CO)[C@H]4CC[C@]23C)OC1=O [HFM-JA-336A]	860 nM
CC(=O)O[C@H]1C=CC(=O)[C@]2(CO)[C@H]3CC[C@]4(C)[C@@H]([C@H](C)[C@H]5CC(C)=C(CO)C(=O)O5)CC[C@H]4[C@@H]3C[C@H]3O[C@]132 [HFM-JA-336C]	1210 nM

Consider the additional molecule presented here.
[in] # value lookup — system human melanoma SKMEL28 cells, readout IC90, item CC(=O)OC[C@]12C(=O)C=C[C@H](O)[C@]13O[C@@H]3C[C@H]1[C@@H]3CC[C@H]([C@H](C)[C@H]4CC(C)=C(CO)C(=O)O4)[C@@]3(C)CC[C@@H]12 [HFM-JA-336B]
[out] 1160 nM

###

# System: squamous cell carcinoma of head and neck cells MDA1986
# Assay comment: MTS cell viability assay, MDA1986
# Type: cell-based
# Setup conditions: Table 1, 72-hour treatment
Measured endpoint: IC50 (nM)
Provide only the numeric value, understood in nM.

Molecule	IC50, nM
CC(=O)OCC1=C(C)C[C@H]([C@@H](C)C2CC[C@H]3[C@@H]4C[C@H]5O[C@]56[C@@H](OC(C)=O)C=CC(=O)[C@]6(CO)[C@H]4CC[C@]23C)OC1=O (stereo partly shown)	2240
CC1=C(CO)C(=O)O[C@@H]([C@@H](C)[C@H]2CC[C@H]3[C@@H]4C[C@H]5O[C@]56[C@@H](O)C=CC(=O)[C@]6(C)[C@H]4CC[C@]23C)C1 [Withaferin A, reference compound]	800
CC1=C(CO)C(=O)O[C@@H]([C@@H](C)C2CC[C@H]3[C@@H]4C[C@H]5O[C@]56[C@@H](O)C=CC(=O)[C@]6(CO)[C@H]4CC[C@]23C)C1 (stereo partly shown)	3340

Consider the additional molecule presented here.
[in] State the recorded IC50 for this entry: CC(=O)OCC1=C(C)C[C@H]([C@@H](C)C2CC[C@H]3[C@@H]4C[C@H]5O[C@]56[C@@H](OC(C)=O)C=CC(=O)[C@]6(COC(C)=O)[C@H]4CC[C@]23C)OC1=O (stereo partly shown)
[out] 910

###

# Test system: human melanoma SKMEL28 cells
# Assay comment: MTS cell viability assay, SKMEL28
# Format: cell-based
# Setup conditions: Homo sapiens, SK-MEL-28, Table 5
Collected pIC50 values appear next to each entry.
// field semantics: pIC50 = negative decimal log of concentration (mol/L)

Molecule	pIC50
CO[C@H]1CC(=O)[C@]2(CO)[C@H]3CC[C@]4(C)[C@@H]([C@H](C)[C@H]5CC(C)=C(CO)C(=O)O5)CC[C@H]4[C@@H]3C[C@H]3O[C@]32[C@H]1O [Compound X005]	5.03

Consider the additional molecule presented here.
[in] State the recorded pIC50 for this entry: CO[C@H]1CC(=O)[C@]2(C)[C@@H]3[C@@H](C[C@H]4O[C@]42[C@H]1O)[C@@H]1CC[C@H]([C@H](C)[C@H]2CC(C)=C(CO)C(=O)O2)[C@@]1(C)C[C@@H]3O [Compound X007]
[out] 4.94
